Entries and their plant injury at 125 g/ha
Tested on: wheat (Triticum aestivum)
assay.protocol: Test A postemergence
Assay type: in vivo
recorded.conditions: Triticum aestivum, post-emergence, 240 h, 125 g ai/ha, postemergence; visual injury after approximately 10 d; 0 to 100 scale (0 no effect, 100 complete control); read-out: Plant response rating, Wheat
Quick note: give the figure in %, leave out the unit.

CN1C[C@H](c2cc(F)cc(F)c2)[C@@H](C(=O)Nc2ccccc2S(C)(=O)=O)C1=O [Compound 739]
0

Exercise: Param item = C=CCN1C[C@H](c2ccc(OC)c(F)c2)[C@@H](C(=O)Nc2cccc(F)c2F)C1=O [Compound 722] ; retrieve measured plant injury at 125 g/ha.
Solution: 0

Exercise: Look up plant injury at 125 g/ha: CSc1ccccc1NC(=O)[C@H]1C(=S)NC[C@@H]1c1ccc(C)c(C)c1 [Compound 766]
Solution: 0

Exercise: Param item = C=CCN1C[C@H](c2ccc(OC)c(F)c2)[C@@H](C(=O)Nc2ccccc2S(C)(=O)=O)C1=O [Compound 724] ; retrieve measured plant injury at 125 g/ha.
Solution: 0

Exercise: What plant injury at 125 g/ha value was documented for this molecule, Cc1cc([C@H]2CNC(=O)[C@@H]2C(=O)Nc2ccccc2F)ccc1F [Compound 717] ?
Solution: 0

Exercise: Please report the recorded plant injury at 125 g/ha for CC(F)(F)c1cccc([C@H]2CNC(=O)[C@@H]2C(=O)Nc2ccccc2S(C)(=O)=O)c1 [Compound 780] .
Solution: 30

Exercise: Which plant injury at 125 g/ha value is on record for CN1C[C@H](c2cccc([N+](=O)[O-])c2)[C@@H](C(=O)Nc2cccc(F)c2F)C1=O (racemic) [Compound 776] ?
Solution: 30

Exercise: Name the reported plant injury at 125 g/ha value associated with the molecule CSc1ccccc1NC(=O)[C@H]1C(=O)N(C)C[C@@H]1c1cc(F)cc(F)c1 [Compound 738]
Solution: 0

Exercise: Item under review: CN1C[C@H](c2ccc3c(c2)CCC3)[C@@H](C(=O)Nc2ccccc2F)C1=O [Compound 742] . Reported plant injury at 125 g/ha?
Solution: 60

====

System: blackgrass (Alopecurus myosuroides)
assay.protocol: Test A postemergence
Type: in vivo
recorded.conditions: 500 g ai/ha, postemergence; 0 to 100 scale, 0 no effect, 100 complete control
Plant response rating, Blackgrass: recorded values
Form: value (number only, do not type unit).

Solved cases (6 shown):
CN1CC(c2ccc3c(c2)OC(F)(F)O3)C(C(=O)Nc2ccccc2F)C1=O (stereo not shown)
80
Cc1cc(C2CN(C)C(=O)C2C(=O)Nc2ccc(F)cc2F)ccc1F (stereo not shown)
60
Cc1cc(NC(=O)C2C(=O)NCC2c2ccc(F)c(F)c2)ccc1F (stereo not shown)
0
COc1ccc(NC(=O)C2C(=O)NCC2c2ccc(F)c(F)c2)cc1F (stereo not shown)
0
CN1CC(c2cccc(OC(F)(F)C(F)F)c2)C(C(=O)Nc2ccc(F)cc2F)C1=O (stereo not shown)
70
O=C1NCC(c2ccc(Br)cc2)C1C(=O)Nc1ccccc1Cl (stereo not shown)
30

Exercise: Fill in the blank: the reported Plant response rating, Blackgrass of CN1CC(c2ccccc2)C(C(=S)Nc2ccccc2F)C1=O (stereo not shown) is ____.
Solution: 0

====

System: barnyardgrass (Echinochloa crus-galli)
assay.protocol: Test G Pre-Emergence Protocol
Assay type: in vivo
recorded.conditions: Echinochloa crus-galli, pre-emergence, 312 h, 15.625 g ai/ha, evaluated after 13 days, read-out: Barnyardgrass damage rating (100=total damage to plant; 0=no damage to plant)
endpoint.name: pest or weed control at 15.625 g/ha (%)
Report the value in % with no unit label.

Example compounds with recorded pest or weed control at 15.625 g/ha:
CN1C[C@@H](c2ccc(C(F)(F)F)cc2)[C@H](C(=O)Nc2cnc(Cl)cn2)C1=O (racemic)
0
COc1cc(Cl)cc(C2CN(C)C(=O)C2C(=O)Nc2cccc(F)c2F)c1 (stereo not shown)
50
CN1C[C@H](c2cccc(C(C)(C)C#N)c2)[C@@H](C(=O)Nc2ccccc2S(C)(=O)=O)C1=O (racemic)
0

Exercise: Given the compound CN1CC(c2cc(F)cc(OCC(F)(F)F)c2)C(C(=O)Nc2cccc(F)c2F)C1=O (stereo not shown) , what is its reported pest or weed control at 15.625 g/ha?
Solution: 60

Exercise: Please report the recorded pest or weed control at 15.625 g/ha for COC(=O)c1cc([C@H]2CN(C)C(=O)[C@@H]2C(=O)Nc2cccc(F)c2F)ccc1F (racemic) .
Solution: 0

Exercise: What does the record list as pest or weed control at 15.625 g/ha for CN1C[C@H](c2ccc(C(F)(F)F)cc2)[C@@H](C(=O)Nc2cccnc2S(C)(=O)=O)C1=O (racemic) ?
Solution: 0

Exercise: Look up pest or weed control at 15.625 g/ha: COc1cc(C2CN(C)C(=O)C2C(=O)Nc2cccc(F)c2F)cc(F)c1F (stereo not shown)
Solution: 40

====

System: Galium (catchweed bedstraw, Galium aparine)
assay.protocol: Test A postemergence
Format: in vivo
recorded.conditions: 125 g ai/ha, postemergence; visual rating after approx. 10 d, 0 to 100 scale (0 no effect, 100 complete control)
Decide by Plant response rating, Galium: equal to or exceeding 30 means YES, less means NO.

The examples below pair each entry with its known result.
CN1CC(c2cccc(OC(F)F)c2)C(C(=O)Nc2ccccc2F)C1=O (stereo not drawn) [Compound 618]
YES
CN1CC(c2ccc(F)c(C(F)(F)F)c2)C(C(=O)Nc2cccc(F)c2F)C1=O (stereo not drawn) [Compound 613]
YES

Exercise: # bool: Plant response rating, Galium of CN1CC(c2cccc(C(F)(F)F)c2)C(C(=O)Nc2cccc(Cl)c2F)C1=O (stereo not drawn) [Compound 574] >= 30
Solution: YES

Exercise: API: above_or_equal(metric=Plant response rating, Galium, cutoff=30) for item O=C1NCC(c2ccc(Oc3ccccc3)cc2)C1C(=O)Nc1ccccc1Cl (racemic) [Compound 538]
Solution: NO

Exercise: Could you tell me if the measured Plant response rating, Galium of CCc1cccc(C2CN(C)C(=O)C2C(=O)Nc2ccccc2F)c1 (stereo not drawn) [Compound 567] reaches 30 or more?
Solution: YES

Exercise: # check: Plant response rating, Galium of O=C1NCC(c2cc(C(F)(F)F)ccc2F)C1C(=O)Nc1cccc(F)c1F (stereo not drawn) [Compound 594] is greater than or equal to 30
Solution: NO

Exercise: Decide: Plant response rating, Galium of CN1CC(c2ccc(Br)cc2)C(C(=O)Nc2ccccc2S(C)(=O)=O)C1=O (stereo not drawn) [Compound 565] >= 30?
Solution: YES

Exercise: Determine whether this molecule has Plant response rating, Galium no lower than 30: O=C(Nc1cccc(F)c1F)C1C(=O)N(CC=CBr)CC1c1cccc(C(F)(F)F)c1 (stereo not drawn) [Compound 527]
Solution: NO

Exercise: Exam item: decide whether the reported Plant response rating, Galium for O=C1NCC(c2cc(C(F)(F)F)ccc2F)C1C(=O)Nc1ccc(F)cc1F (stereo not drawn) [Compound 595] is at least 30.
Solution: NO

Exercise: State whether the measured Plant response rating, Galium reaches 30, counting equality as reaching it, for CN1CC(c2c(F)cccc2F)C(C(=O)Nc2cccc(F)c2F)C1=O (stereo not drawn) [Compound 547]
Solution: NO

Exercise: Hello, I need to know if Cc1ccc(C2CNC(=O)C2C(=O)Nc2ccccc2F)cc1C(F)(F)F (racemic) [Compound 678] has measured Plant response rating, Galium not below 30. Thanks!
Solution: NO

Exercise: Is Plant response rating, Galium at least 30? Consider Cc1ccc(C2CNC(=O)C2C(=O)Nc2cccc(F)c2F)cc1C(F)(F)F (stereo not drawn) [Compound 642]
Solution: YES

====

Measured pest or weed control at 125 g/ha of individual entries
System: Kochia (Kochia scoparia)
assay.protocol: Test A postemergence
Format: in vivo
recorded.conditions: Bassia scoparia, post-emergence, 240 h, 125 g ai/ha, Postemergence, visual rating about 10 d after treatment; read-out: Kochia plant response rating (0 to 100 scale)
Quick reminder: number only, in %, skip the unit.

Sample answers from the record:
CN1C[C@H](c2cccc(C(C)(F)F)c2)[C@@H](C(=O)Nc2ccccc2S(C)(=O)=O)C1=O
0
O=C1NC[C@H](c2cnc(C(F)(F)F)nc2)[C@H]1C(=O)Nc1cccc(F)c1F
0
CN1C[C@H](c2ccc3c(c2)C(F)(F)C(F)(F)O3)[C@@H](C(=O)Nc2cccc(F)c2F)C1=O
40
CN1C[C@H](c2cccc(C(F)(F)F)c2)[C@@H](C(=O)Nc2ccc(F)nc2F)C1=O
50

Exercise: Return pest or weed control at 125 g/ha measured with Kochia (Kochia scoparia) given this compound: COc1ccc([C@H]2CN(C)C(=O)[C@@H]2C(=O)Nc2ccccc2F)cc1
Solution: 20

Exercise: Request - read-out pest or weed control at 125 g/ha | tested on Kochia (Kochia scoparia) | compound O=C(Nc1ccccc1F)C1C(=O)N(CC(F)F)CC1c1cccc(C(F)(F)F)c1 (stereo not shown)
Solution: 0

Exercise: Lab note: need pest or weed control at 125 g/ha for COc1cc([C@H]2CN(C)C(=O)[C@@H]2C(=O)Nc2ccccc2SC)ccc1F on Kochia (Kochia scoparia), anyone have it?
Solution: 0

Taken from patent US12077503B2.
